Assay: Oral exposure and tissue distribution in rats
Assay type: in vivo, male Sprague Dawley rats
Settings: male, Sprague Dawley, plasma; rat, oral 10 mg/kg; read-out: Plasma Cmax (maximum plasma concentration)
RECORDED METRIC: Cmax

# COMPOUND, Cmax
measured = [
    ("O=C(c1csc(-c2cn[nH]c2)c1)N1C2CCC1CC(O)(c1cscn1)C2 (stereo not drawn)", "> 1000 ng/mL"),
    ("O=C(c1csc(-c2cn[nH]c2)c1)N1C2CCC1CC(O)(c1ncccn1)C2 (stereo not drawn)", "> 1000 ng/mL"),
    ("O=C(c1csc(-c2cn[nH]c2)c1)N1C2CCC1CC(O)(c1cnccn1)C2 (stereo not drawn)", "501 to 1000 ng/mL"),
]

stdin: # Cmax lookup, item O=C(c1csc(-c2cn[nH]c2)c1)N1C2CCC1CC(O)(c1nccs1)C2 (stereo not drawn)
stdout: 501 to 1000 ng/mL

stdin: # Cmax lookup, item O=C(c1csc(-c2cn[nH]c2)c1)N1CCC(O)(c2ncccc2Cl)CC1
stdout: > 1000 ng/mL

stdin: # Cmax lookup, item O=C(c1csc(-c2cn[nH]c2)c1)N1C2CCC1CC(O)(c1ccccn1)C2 (stereo not drawn)
stdout: > 1000 ng/mL

----------
Biological target: human 11β-HSD1 (Homo sapiens, UniProt P28845)
Construct: stably transfected with a construct containing the full-length gene coding for the human 11β-HSD1 enzyme; expressed in transfected cells; host or cells: HEK293 (stably transfected, HEK293/11β-HSD1)
Sequence (P28845 whole entry): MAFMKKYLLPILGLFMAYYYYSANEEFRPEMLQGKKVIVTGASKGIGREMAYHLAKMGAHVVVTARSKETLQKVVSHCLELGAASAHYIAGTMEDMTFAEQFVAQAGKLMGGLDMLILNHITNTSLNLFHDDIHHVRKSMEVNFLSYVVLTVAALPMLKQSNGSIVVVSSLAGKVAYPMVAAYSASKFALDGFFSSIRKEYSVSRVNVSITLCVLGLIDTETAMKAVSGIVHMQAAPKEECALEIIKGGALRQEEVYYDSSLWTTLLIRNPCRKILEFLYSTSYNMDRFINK
Test: Cellular in vitro 11β-HSD1 enzyme inhibition assay (SPA, HEK293/11β-HSD1 cells)
Format: cell-based
Conditions: HEK293; potency groups; read-out: IC50 for 11β-HSD1 (HEK293)
pIC50: −log10 of the molar value.
RECORDED METRIC: pIC50

The following compounds have reported results that may help.
# COMPOUND, MEAS VALUE
data = [
    ("O=C(c1csc(-c2cn[nH]c2)c1)N1C2CCC1CC(O)(c1ncccn1)C2 (stereo not drawn) [XX-20]", "≥ 7.00"),
    ("O=C(c1csc(-c2cn[nH]c2)c1)N1C2CCC1CC(O)(c1nc3ccccc3s1)C2 (stereo not drawn) [XX-40]", "6.30 to 7.00"),
    ("O=C(c1csc(-c2cn[nH]c2)c1)N1C2CCC1CC(O)(c1ncncc1Cl)C2 (stereo not drawn) [XX-23]", "≥ 7.00"),
    ("N#CC1(c2nccs2)CC2CCC(C1)N2C(=O)c1csc(-c2cn[nH]c2)c1 (stereo not drawn) [XX-35]", "≥ 7.00"),
    ("COC1(c2ncccc2C)CC2CCC(C1)N2C(=O)c1csc(-c2cn[nH]c2)c1 (stereo not drawn) [XX-11]", "≥ 7.00"),
    ("Cc1cnc(C2(O)CC3CCC(C2)N3C(=O)c2csc(-c3cn[nH]c3)c2)s1 (stereo not drawn) [XX-32]", "≥ 7.00"),
    ("O=C(c1csc(-c2cn[nH]c2)c1)N1CCC(O)(c2ncc(Cl)cc2Cl)CC1 [YY-03]", "6.30 to 7.00"),
    ("O=C(c1csc(-c2cn[nH]c2)c1)N1CCC(O)(c2ncccc2C(F)(F)F)CC1 [YY-04]", "6.30 to 7.00"),
]

Would you kindly look at the next entry?
stdin: Requested read-out pIC50, target or system human 11β-HSD1 (Homo sapiens, UniProt P28845), entry O=C(c1csc(-c2cn[nH]c2)c1)N1C2CCC1CC(O)(c1ncco1)C2 (stereo not drawn) [XX-37]
stdout: ≥ 7.00

Value source: patent US9834549B2
